Assay Overview: NCI Yeast Anticancer Drug Screen. Data for the cln2 rad14 strain (AID 165);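 note: 0% = growth equal to vehicle treated cultures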
Details: S. cerevisiae cln2 rad14 strain, at 50.0 µM, active compounds read high
About 79,000 compounds went through this panel and 15% of them were active in at least one assay; those are over-represented in the sample as a whole.
# maps each entry to its growth inhibition
Supply the numeric figure in %, leaving out any unit text.

Previously resolved entries follow.
Molecule: O=C1Nc2ccccc2C1(N1CCCCC1)N1CCCCC1
Observed Value: 7.9
//
Molecule: O=C1c2ccccc2C(=O)c2cc(C[n+]3ccccc3C3OCCO3)ccc21
Observed Value: 15.8
//
Molecule: CC(C)(C)CC(CC(C)(C)C)C(=O)O
Observed Value: 1.85
//
Molecule: CN(C)CCCN=C(N)N
Observed Value: 20.4
//
Molecule: O=C1c2cn[nH]c2N=C(Nc2ccccc2)C1N=Cc1ccc([N+](=O)[O-])cc1 (stereo not drawn)
Observed Value: 12.5

*Q* Find the recorded growth inhibition belonging to O=C(O)COc1ccccc1-c1ccccc1 and report it.
*A* -48.5

*Q* Similarly, O=C1C(c2cnc3c(n2)CCC=C3)=C(O)c2ccccc21 ?
*A* -84.2

*Q* Now consider Nc1ccc(Cl)cc1Cl .
*A* -34

*Q* Similarly, CCCCC/C(=N\NC(N)=O)C1=CCCCC1 ?
*A* -19.9

*Q* Continue with O=C1c2ccccc2C(=O)N1CC1CO1 (stereo not drawn)
*A* -7.7

*Q* Follow-up entry: Cc1cc2c(cc1C)NC(=O)CC(c1ccccc1)=N2
*A* 3.3

*Q* Try C/C(=N/NC(=O)NN)c1cccc(O)c1 next.
*A* 2.15

*Q* Okay, and C1C[OH+]CC[OH+]CCNCC[OH+]CC[OH+]CCN1.Cl.[Cl-].[Pt+4] ?
*A* 10.4
